The measurements presented in this section are drawn from PubChem BioAssay.

Below, each of the molecules is paired with its reported inhibition value.
assay: 384-well plate pilot, post-Golgi transport modulator project, inhibition of yeast transport mutant growth (AID 636); conditions: absorbance 615 nm, about 18 h, hits give high values; further: test concentration not given here
Quick reminder: number only, in %, skip the unit.

Worked cases, answers included:
{"molecule": "O=C(Nc1ccc(-c2noc(-c3cccs3)n2)cc1)c1cccnc1", "assay_metric": "inhibition", "val": -0.81}
{"molecule": "CCN1CCN(Cc2ccc(NC(=O)Nc3ccc(SC)cc3)cc2)CC1", "assay_metric": "inhibition", "val": -4.93}

// inhibition lookup, key: O=S(=O)(Nc1ncccn1)c1ccc(Nc2ncnc3ccccc23)cc1
-7.57

// inhibition lookup, key: N#CC1(c2ccccc2)CCC(=NO)CC1 (configuration not stated)
-3.7

// inhibition lookup, key: N#Cc1cnc(SCC(=O)Nc2ccccc2C(F)(F)F)nc1N
-4.4

// inhibition lookup, key: C=CCc1cccc2cc(C(=O)NCc3cccnc3)c(=O)oc12
-0.52

// inhibition lookup, key: CC1C(O)=C(c2nc3ccccc3[nH]2)C(=N)N1c1ccccc1 (configuration not stated)
-6.71

// inhibition lookup, key: c1ccc(-n2cnc3cc(NCc4ccccn4)ccc32)cc1
-5.27

// inhibition lookup, key: Cc1c(Cl)cccc1N1C(=O)c2ccccc2C1=O
-4.86

// inhibition lookup, key: O=C(Nc1cccc(O)c1)c1ccccc1
-5

// inhibition lookup, key: Cc1nc2ccc(CCO)cc2s1
-5.89

// inhibition lookup, key: O=C(Oc1ccc(Cl)cc1N1C(=O)CCC1=O)c1ccco1
-3.65
